Value source: paper PMC12010006

Molecular target: MRGPRX2 (Homo sapiens, UniProt Q96LB1)
Sequence (Q96LB1 1-330): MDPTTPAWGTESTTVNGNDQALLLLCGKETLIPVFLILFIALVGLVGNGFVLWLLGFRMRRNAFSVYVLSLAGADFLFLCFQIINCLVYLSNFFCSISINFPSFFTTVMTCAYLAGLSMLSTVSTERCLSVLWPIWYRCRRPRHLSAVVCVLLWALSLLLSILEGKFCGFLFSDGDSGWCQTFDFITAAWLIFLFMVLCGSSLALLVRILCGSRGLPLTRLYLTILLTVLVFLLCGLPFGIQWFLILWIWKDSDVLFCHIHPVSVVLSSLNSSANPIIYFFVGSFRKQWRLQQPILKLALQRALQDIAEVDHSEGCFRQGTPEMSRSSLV
Experiment: β-arrestin assay (agonist mode), β-arrestin CHO cells recombinantly expressing MRGPRX2
Type: cell-based
Settings: normalized to CST-14 (EC80 5,000 nM)
reported.property: β-Arrestin assay % activation

// query So what's the measured β-Arrestin assay % activation for this one? "O=c1cc[nH]c2nc3ccccc3n12"
// result -1%

// query So what's the measured β-Arrestin assay % activation for this one? "CCc1c(C2CC2)[nH]c2nc3ccccc3n2c1=O"
// result 0%

// query So what's the measured β-Arrestin assay % activation for this one? "CCCc1c(C)[nH]c2nc3ccccc3n2c1=O"
// result 1%

// query So what's the measured β-Arrestin assay % activation for this one? "CCc1c(C(C)C)[nH]c2nc3c(C)cccc3n2c1=O"
// result 1%

// query So what's the measured β-Arrestin assay % activation for this one? "CCc1c(CC(C)C)[nH]c2nc3ccccc3n2c1=O"
// result -2%

// query So what's the measured β-Arrestin assay % activation for this one? "CCc1c(C(C)C)[nH]c2nc3ccccc3n2c1=O"
// result -1%

// query So what's the measured β-Arrestin assay % activation for this one? "CCc1c(C)n(C)c2nc3ccccc3n2c1=O"
// result 1%

// query So what's the measured β-Arrestin assay % activation for this one? "CCCc1cc(=O)n2c(nc3ccccc32)[nH]1"
// result 1%

// query So what's the measured β-Arrestin assay % activation for this one? "CCCc1[nH]c2nc3ccccc3n2c(=O)c1CCC"
// result -1%

// query So what's the measured β-Arrestin assay % activation for this one? "CCc1c(C)[nH]c2nc3ccccc3n2c1=O"
// result -2%

// query So what's the measured β-Arrestin assay % activation for this one? "CCc1c(C(C)C)[nH]c2nc3cc(C)ccc3n2c1=O"
// result -2%

* * *

Molecular target: UniProt:Q96LB1
Sequence (Q96LB1 1-330): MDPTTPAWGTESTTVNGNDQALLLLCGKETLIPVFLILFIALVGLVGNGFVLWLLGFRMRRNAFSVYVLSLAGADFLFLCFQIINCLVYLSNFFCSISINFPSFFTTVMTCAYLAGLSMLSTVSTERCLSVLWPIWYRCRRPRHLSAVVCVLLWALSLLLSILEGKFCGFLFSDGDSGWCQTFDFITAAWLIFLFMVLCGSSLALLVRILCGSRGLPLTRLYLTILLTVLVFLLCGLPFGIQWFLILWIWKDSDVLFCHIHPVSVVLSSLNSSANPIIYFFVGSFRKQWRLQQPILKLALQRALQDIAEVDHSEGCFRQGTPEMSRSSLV
Assay: β-arrestin recruitment assay (antagonist mode), β-arrestin-CHO cells recombinantly expressing MRGPRX2
Format: cell-based
Design: expressed in transfected cells
Settings: versus CST-14 (EC80 1,000 nM, EC50 483 nM); Cheng-Prusoff; read-out: β-Arrestin assay Ki ± SEM
Exercise: state measured pKi for each of the molecules provided.
# reply with the number alone; pKi is -log10 of concentration in mol/L

// query What measured pKi is associated with "CCCc1cc(=O)n2c(nc3ccccc32)[nH]1" on UniProt:Q96LB1?
// result 5.32

// query What measured pKi is associated with "CCc1c(-c2ccccc2)[nH]c2nc3ccccc3n2c1=O" on UniProt:Q96LB1?
// result 6.76

// query What measured pKi is associated with "CCc1c(C(C)(C)C)[nH]c2nc3ccccc3n2c1=O" on UniProt:Q96LB1?
// result 6.95

// query What measured pKi is associated with "CCCc1c(C(C)C)[nH]c2nc3ccccc3n2c1=O" on UniProt:Q96LB1?
// result 6.78

// query What measured pKi is associated with "CCc1c(C)[nH]c2nc3ccccc3n2c1=O" on UniProt:Q96LB1?
// result 5.98

// query What measured pKi is associated with "CCc1c(C(C)C)[nH]c2nc3cc(C)c(C)cc3n2c1=O" on UniProt:Q96LB1?
// result 7.55

// query What measured pKi is associated with "CCc1c(C(C)C)[nH]c2nc3cc(F)ccc3n2c1=O" on UniProt:Q96LB1?
// result 8.23

// query What measured pKi is associated with "CCc1c(C(C)C)[nH]c2nc3ccccc3n2c1=O" on UniProt:Q96LB1?
// result 7.03

// query What measured pKi is associated with "CCc1c(C2CC2)[nH]c2nc3ccccc3n2c1=O" on UniProt:Q96LB1?
// result 6.42

// query What measured pKi is associated with "CCCc1[nH]c2nc3ccccc3n2c(=O)c1CC" on UniProt:Q96LB1?
// result 7.04

// query What measured pKi is associated with "CCc1c(C(C)C)[nH]c2nc3cc(Br)c(Br)cc3n2c1=O" on UniProt:Q96LB1?
// result 6.54

// query What measured pKi is associated with "CC(C)c1cc(=O)n2c(nc3ccccc32)[nH]1" on UniProt:Q96LB1?
// result 5.98

// query What measured pKi is associated with "CCc1c(C(C)C)[nH]c2nc3nc(F)ccc3n2c1=O" on UniProt:Q96LB1?
// result 5.79
